- System: PIK3CD
- assay_setup: concentration: 1 μM, replicates: in singlicate; n = 1;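 note: KINOMEscan kinase panel screen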
reported_endpoint: %Inh (%)
Could you give me the number in %? Just the number is fine.

compound: Cc1cccc(-c2nc(Nc3ccc4[nH]nnc4c3)c3ccccc3n2)n1 [GW867587]
uom: %
%Inh: 0

compound: Cl.c1ccc(Cn2ccc3cc(Nc4ncnc5ccccc45)ccc32)cc1 [GW275568]
uom: %
%Inh: 0

compound: COc1ccc(Nc2nccc(N3CCC(NC(=O)c4cccc(NC(C)=O)c4)C3)n2)cc1 (stereo not drawn) [GSK1379732]
uom: %
%Inh: 0

compound: CN1c2ccc(-c3ccc(C(=O)NCCO)cc3)cc2-c2[nH]ncc2S1(=O)=O
uom: %
%Inh: 10

compound: Cc1ccc(C)c(NC(=O)NCCNc2ccnc(Nc3ccc(F)cc3)n2)c1 [GSK1379878]
uom: %
%Inh: 0

compound: c1ccc(-c2ccc3c(-c4ccnc(Nc5ccc6c(c5)OCCO6)n4)cnn3n2)cc1 [GW818941]
uom: %
%Inh: 0

Entry COc1ccc(NC(=O)Nc2ccc(C)c(-c3ccc(C(=O)Nc4ccncc4)cc3)c2)cc1 [GSK1398475] , tested on PIK3CD, has a reported %Inh of 0

Entry CCC(CC)(CC)n1cnc2c(N)ncnc21 [SKF-97620] , tested on PIK3CD, has a reported %Inh of 22

Entry CNc1nccc(-c2c(-c3ccc(F)cc3)ncn2C2CCN(C)CC2)n1 [SB-222903] , tested on PIK3CD, has a reported %Inh of 0

Entry CSc1nn2c(=O)cc(N3CCOCC3)nc2n1Cc1cccc(Cl)c1Cl [GSK2347225] , tested on PIK3CD, has a reported %Inh of 85

Entry Clc1cccc(-c2nc(Nc3ccncc3)c3ccccc3n2)c1 [GW873004] , tested on PIK3CD, has a reported %Inh of 0

Entry Cn1cc(-c2ccc3c(c2)CCN3C(=O)Cc2cccc(C(F)(F)F)c2)c2c(N)ncnc21 [GSK2606414] , tested on PIK3CD, has a reported %Inh of 0

Entry Cl.O=S(=O)(c1cccc(F)c1)c1ccc(Nc2ncnc3cc(Br)sc23)cc1Cl [GSK306886] , tested on PIK3CD, has a reported %Inh of 21

Entry C[C@H]1CC[C@@H](C(=O)Nc2ccccc2)CN1c1cc(-c2ccc3c(N)n[nH]c3c2)nc(N)n1 [GSK2283293] , tested on PIK3CD, has a reported %Inh of 0

Entry O=C(Nc1ccccc1F)NC1CCN(c2ccnc(Nc3ccc(F)cc3)n2)C1 (stereo not drawn) [GSK1379722] , tested on PIK3CD, has a reported %Inh of 0

Entry NC(=O)c1sc(-n2cnc3ccccc32)cc1OCc1ccccc1F [GSK1024306] , tested on PIK3CD, has a reported %Inh of 39

Entry Cl.Cn1ccc(-c2cccc(Nc3ccnc4cc(-c5nccs5)ccc34)c2)n1 [GW525701] , tested on PIK3CD, has a reported %Inh of 0

Entry Nc1nc(-c2ccccn2)c(-c2ccnc3ccccc23)s1 [GW548057] , tested on PIK3CD, has a reported %Inh of 0

---

- Test system: CAMK1
- assay_setup: concentration: 1 μM, replicates: in singlicate; n = 1
Below is a list of entries, each paired with its recorded %Inh value.
Could you give me the number in %? Just the number is fine.

As a guide, the following entries are already answered.
compound: CS(=O)(=O)CCNCc1ccc(-c2ccc3ncnc(Nc4ccc(OCc5ccccc5)c(Cl)c4)c3c2)o1.Cl
target_under_test: CAMK1
%Inh, %: 14
--
compound: O=C(Nc1ccccc1)Nc1ccc(Oc2ccc3nccn3n2)cc1
target_under_test: CAMK1
%Inh, %: 0
--
compound: CCCc1ccc(S(=O)(=O)NC2CCN(c3ccnc(Nc4ccc(OC)cc4)n3)C2)cc1 (stereo not shown)
target_under_test: CAMK1
%Inh, %: 5

Lab note: next compound to report on.
The recorded %Inh for entry `O=C(NCCCN1CCCC1=O)c1cnc(NCc2cc(Cl)ccc2Cl)nc1NC1CCNCC1` equals 0

---

- Test system: DMPK2
- Construct: gene CDC42BPG
- assay_setup: concentration: 1 μM, replicates: in singlicate; n = 1
Below is a list of entries, each paired with its recorded %Inh value.
Could you give me the number in %? Just the number is fine.

record_smiles: Oc1ccc2ncnc(Nc3ccc(OCc4ccccc4)cc3)c2c1
%Inh / %: 0

The recorded %Inh for entry `CCc1nc(-c2cccc(C)c2)c(-c2ccnc(NC(=O)c3ccccc3)c2)s1` equals 8

The recorded %Inh for entry `C[C@H]1CC[C@@H](C(=O)Nc2ccccc2)CN1c1cc(-c2ccc3c(N)n[nH]c3c2)nc(N)n1` equals 11

The recorded %Inh for entry `Nc1n[nH]c2nnc(-c3ccccc3)cc12` equals 0

The recorded %Inh for entry `COc1cc2ncnc(Nc3ccc(OCc4ccccc4Br)c(Cl)c3)c2cc1OC.Cl` equals 7

The recorded %Inh for entry `N#Cc1ccc(Oc2ccc(Nc3ncnc4cc[nH]c34)cc2Cl)cc1` equals 4

The recorded %Inh for entry `CN1CCC(n2cnc(-c3ccc(F)cc3)c2-c2ccnc(NC3CCNCC3)n2)CC1` equals 18

The recorded %Inh for entry `O=C(Nc1ccccc1)Nc1ccc(Oc2ccc3nccn3n2)cc1` equals 0

The recorded %Inh for entry `Cl.Fc1ccccc1COc1ccc(Nc2ncnc3ccc(-c4nnc(C(F)(F)F)o4)cc23)cc1Cl` equals 11

---

- System: TAOK3
- assay_setup: concentration: 1 μM, replicates: in singlicate; n = 1
Below is a list of entries, each paired with its recorded %Inh value.
Could you give me the number in %? Just the number is fine.

As a guide, the following entries are already answered.
molecule: Nc1nc(-c2ccc3c(N)n[nH]c3c2)cc(N2CCC[C@@H](C(=O)Nc3ccccc3)C2)n1.O=C(O)C(F)(F)F.O=C(O)C(F)(F)F [GSK2288359]
uom: %
%Inh: 0
--
molecule: Fc1cccc(COc2ccc(Nc3ncnc4sc(-c5ccc[nH]5)cc34)cc2Cl)c1 [GW707818]
uom: %
%Inh: 14
--
molecule: Cl.Fc1ccccc1COc1ccc(Nc2ncnc3ccc(-c4nnc(C(F)(F)F)o4)cc23)cc1Cl [GW424170]
uom: %
%Inh: 0
--
molecule: C[C@@H]1CCN(C(=O)CO)C[C@@H]1N(C)c1ncnc2[nH]ccc12
uom: %
%Inh: 0
--
molecule: O=C(c1ccc(-c2cc(-c3c[nH]nc3-c3ccccn3)ccn2)cc1)N1CCCC1 [GW792479]
uom: %
%Inh: 0

The recorded %Inh for entry Cc1ccc(C)c(NC(=O)NCCNc2ccnc(Nc3ccc(F)cc3)n2)c1 [GSK1379878] equals 0

The recorded %Inh for entry CCc1nc(-c2cccc(N(C)S(=O)(=O)c3ccccc3)c2)c(-c2ccnc(Nc3ccc(N4CCN(C(C)=O)CC4)nc3)n2)s1 [GSK1645895] equals 2

The recorded %Inh for entry O=C(Nc1ccccc1F)NC1CCN(c2ccnc(Nc3ccc(F)cc3)n2)C1 (centres unmarked) [GSK1379722] equals 0

---

- System: SgK110
- assay_setup: concentration: 1 μM, replicates: in singlicate; n = 1
reported_endpoint: %Inh (%)
Could you give me the number in %? Just the number is fine.

As a guide, the following entries are already answered.
compound: Nc1n[nH]c2nnc(-c3ccccc3)cc12
target_under_test: SgK110
uom: %
quantitative_result: 0
//
compound: O=C(NCCCN1CCCC1=O)c1cnc(NCc2cc(Cl)ccc2Cl)nc1NC1CCNCC1
target_under_test: SgK110
uom: %
quantitative_result: 5
//
compound: COC(=O)c1c(-c2ccccc2)c2cc(Cl)ccc2c(=O)n1Cc1ccc(S(C)(=O)=O)cc1
target_under_test: SgK110
uom: %
quantitative_result: 46

Lab note: next compound to report on.
The recorded %Inh for entry `Nc1nc(-c2ccccn2)c(-c2ccnc3ccccc23)s1` equals 0

---

- System: PRKD2
- assay_setup: concentration: 1 μM, replicates: in singlicate; n = 1
reported_endpoint: %Inh (%)
Could you give me the number in %? Just the number is fine.

As a guide, the following entries are already answered.
record_smiles: O=c1cc(N2CCOCC2)nc2n(Cc3cccc(Cl)c3)ccn12
reported_endpoint: %Inh
uom: %
quantitative_result: 0

record_smiles: c1ccc(-c2ccc3c(-c4ccnc(Nc5ccc6c(c5)OCCO6)n4)cnn3n2)cc1
reported_endpoint: %Inh
uom: %
quantitative_result: 18

record_smiles: CC(=O)Nc1n[nH]c2ncc(-c3ccccc3)cc12
reported_endpoint: %Inh
uom: %
quantitative_result: 0

record_smiles: Clc1cc(Nc2ncnc3cc[nH]c23)ccc1OCc1ccccn1
reported_endpoint: %Inh
uom: %
quantitative_result: 3

Lab note: next compound to report on.
The recorded %Inh for entry `Cn1ccc2ncnc(Nc3ccc(Oc4cccc(Cl)c4)c(Cl)c3)c21` equals 30

---

- System: PCTK1
- Construct: gene CDK16
- assay_setup: concentration: 1 μM, replicates: in singlicate; n = 1
Below is a list of entries, each paired with its recorded %Inh value.
Could you give me the number in %? Just the number is fine.

As a guide, the following entries are already answered.
molecule: CC(C)(C)OC(=O)NC1CCCN(c2cc(-c3ccc4c(N)n[nH]c4c3)nc(N)n2)C1 (stereo not drawn)
%Inh (%): 4

molecule: CCc1nc(-c2cccc(C)c2)c(-c2ccnc(NC(=O)c3ccccc3)c2)s1
%Inh (%): 24

molecule: Cn1ccc2ncnc(Nc3ccc(Oc4cccc(Cl)c4)c(Cl)c3)c21
%Inh (%): 24

Entry `Fc1ccc(Nc2nccc(-c3c(-c4ccc(Cl)cc4)nn4ncccc34)n2)cc1F` , tested on PCTK1, has a reported %Inh of 23

Entry `Nc1n[nH]c2nnc(-c3ccccc3)cc12` , tested on PCTK1, has a reported %Inh of 7

Entry `COc1ccc(NC(=O)c2ccc(-c3cc(-c4nnc(C)o4)ccc3C)cc2)cc1` , tested on PCTK1, has a reported %Inh of 6

Entry `Clc1cccc(-c2nc(Nc3ccncc3)c3ccccc3n2)c1` , tested on PCTK1, has a reported %Inh of 0

Entry `FC(F)(F)c1ccc(-c2nn3ncccc3c2-c2ccnc(Nc3cccc(C(F)(F)F)c3)n2)cc1` , tested on PCTK1, has a reported %Inh of 0

Entry `FC(F)(F)c1ccc(-c2cc(-c3c[nH]nc3-c3ccccn3)ccn2)cc1` , tested on PCTK1, has a reported %Inh of 0
